Source: patent US20120258108A1

Biological target: Recombinant Human DLL4 (human, UniProt Q9NR61 27-524)
Sequence (Q9NR61 27-524 limits assumed): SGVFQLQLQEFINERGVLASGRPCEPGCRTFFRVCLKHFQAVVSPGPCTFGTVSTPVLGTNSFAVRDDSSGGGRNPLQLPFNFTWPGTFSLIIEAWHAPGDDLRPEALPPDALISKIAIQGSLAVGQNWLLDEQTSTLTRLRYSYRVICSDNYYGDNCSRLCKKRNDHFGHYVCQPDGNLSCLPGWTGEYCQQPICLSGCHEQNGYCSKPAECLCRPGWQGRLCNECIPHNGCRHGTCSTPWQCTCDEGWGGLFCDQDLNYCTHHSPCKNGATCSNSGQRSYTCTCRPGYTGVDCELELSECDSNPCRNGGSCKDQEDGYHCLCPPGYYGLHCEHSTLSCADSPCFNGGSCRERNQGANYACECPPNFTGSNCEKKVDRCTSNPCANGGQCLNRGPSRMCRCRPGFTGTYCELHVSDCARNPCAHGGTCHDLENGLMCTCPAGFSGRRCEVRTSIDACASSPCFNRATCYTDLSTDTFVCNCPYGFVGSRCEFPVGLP
Test: SPR (BIACORE)
binders and their reported kon
Please reply with the bare figure in M⁻¹ s⁻¹ and do not write the unit itself.

[
  {
    "Binder": "AB331 (antibody, human IgG1, kappa, V domains shown, CDR-grafted parent antibody) VH: QVQLQQSGAELMKPGASVKLSCKVTGGSISSSSYYWGWIKQRPGHGLEWIGDIYYTGSTYYNPSLKSKVTITVDTSSNTFYIQLISLTTEDSAIYYCARQALAMGGGSDKWGQGTLLTVSA VL: DYLLTQSPAILSVSPGERVSFSCSGQRLGDKYASWYQQRTNGSPRLVIYEDSKRPSGIPSRFSGGNSGDDATLSINSVESEDIADYYCQAWDRDTGVFGAGTKLELKR",
    "kon [M⁻¹ s⁻¹]": 76000
  }
]

Return the recorded kon value; entry: AB299 (antibody, human IgG1, kappa, V domains shown, CDR-grafted parent antibody) VH: EVQLVESGGGLVQPGGSLRLSCAASGFTFSNFPMAWVRQAPGKGLEWVATISSSDGTTYYRDSVKGRFTISRDNSKNTLYLQMNSLRAEDTAVYYCARGYYNSPFAYWGQGTLVTVSS VL: DIQMTQSPSSLSASVGDRVTITCRASEDIYSNLAWYQQKPGKAPKLLIYDTNNLADGVPSRFSGSGSGTDFTLTISSLQPEDFATYYCQQYNNYPPTFGQGTKVEIKR
160000

Specify measured kon for AB309 (antibody, human IgG1, kappa, V domains shown, CDR-grafted parent antibody) VH: EVQLVESGGGLVQPGRSLRLSCAASGFTFSNFPMAWVRQAPGKGLEWVATISSSDGTTYYRDSVKGRFTISRDNAKNSLYLQMNSLRAEDTAVYYCARGYYNSPFAYWGQGTLVTVSS VL: DIQMTQSPSSLSASVGDRVTITCRASEDIYSNLAWYQQKPGKAPKLLIYDTNNLADGVPSRFSGSGSGTDFTLTISSLQPEDVATYYCQQYNNYPPTFGQGTKVEIKR .
130000

Please supply the value of reported kon for the item AB307 (antibody, human IgG1, kappa, V domains shown, CDR-grafted parent antibody) VH: EVQLLESGGGLVQPGGSLRLSCAVSGGSISSSSYYWGWIRQAPGKGLEWIGDIYYTGSTYYNPSLKSRVTISVDTSKNTFYLQMNSLRAEDTAVYYCARQALAMGGGSDKWGQGTLVTVSS VL: EYVLTQSPGTLSLSPGERATLSCSGQRLGDKYASWYQQKPGQSPRLVIYEDSKRPSGIPDRFSGSNSGDDATLTISRLEPEDFAVFYCQAWDRDTGVFGQGTKVEIKR
93000

Please report the measured kon for AB319 (antibody, human IgG1, kappa, V domains shown, CDR-grafted parent antibody) VH: EVQLVESGGGLVQPANSLKLSCAASGFTFSNFPMAWVRQSPKKGLEWVATISSSDGTTYYRDSVKGRFTISRDNAKNTLYLQMDSLRSEDTATYYCARGYYNSPFAYWGQGVLVTVSS VL: DIRMTQSPASLSASLGETVNIECRASEDIYSNLAWYQQKPGKAPQLLIYDTNNLADGVPSRFSGSGSGTQFSLKINSLQSEDVATYYCQQYNNYPPTFGGGTKLELKR
100000

Consider the binder AB306 (antibody, human IgG1, kappa, V domains shown, CDR-grafted parent antibody) VH: EVQLVESGGGLVQPGRSLRLSCAVSGGSISSSSYYWGWIRQAPGKGLEWIGDIYYTGSTYYNPSLKSRVTISVDTAKNSFYLQMNSLRAEDTAVYYCARQALAMGGGSDKWGQGTLVTVSS VL: DYQLTQSPSSLSASVGDRVTITCSGQRLGDKYASWYQQKPGKSPKLVIYEDSKRPSGIPSRFSGSNSGDDATLTISSLQPEDVATYYCQAWDRDTGVFGQGTKVEIKR . State its measured kon.
68000
